B1: library; numbered along this chain (parent)
chain: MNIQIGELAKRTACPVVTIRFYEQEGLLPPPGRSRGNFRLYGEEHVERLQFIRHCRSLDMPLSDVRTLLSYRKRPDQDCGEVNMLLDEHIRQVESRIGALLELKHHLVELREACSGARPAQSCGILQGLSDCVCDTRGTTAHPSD

Variants of: B1
Test: sfGFP reporter fluorescence (15 h) (µM FITC); higher = stronger transcriptional activation
Details: library round: Round 0; ligand: 30 µM Zn

>  <mutant code>
T140A

>  <sfGFP reporter fluorescence>
0.5

$$$$
>  <mutant code>
R39N

>  <sfGFP reporter fluorescence>
0.0605

$$$$
>  <mutant code>
R33S

>  <sfGFP reporter fluorescence>
0.0656

$$$$
>  <mutant code>
D135I

>  <sfGFP reporter fluorescence>
1.72

$$$$
>  <mutant code>
V16L

>  <sfGFP reporter fluorescence>
0.56

$$$$
>  <mutant code>
E7G

>  <sfGFP reporter fluorescence>
0.626

$$$$
>  <mutant code>
C123S

>  <sfGFP reporter fluorescence>
0.0552

$$$$
>  <mutant code>
L58V

>  <sfGFP reporter fluorescence>
0.061

$$$$
>  <mutant code>
R20F

>  <sfGFP reporter fluorescence>
0.0581

$$$$
>  <mutant code>
Y22F

>  <sfGFP reporter fluorescence>
0.173

$$$$
>  <mutant code>
G138A

>  <sfGFP reporter fluorescence>
0.697

$$$$
>  <mutant code>
D135R

>  <sfGFP reporter fluorescence>
0.909

$$$$
>  <mutant code>
R20L

>  <sfGFP reporter fluorescence>
0.0671

$$$$
>  <mutant code>
P30A

>  <sfGFP reporter fluorescence>
0.681

$$$$
>  <mutant code>
V82Y

>  <sfGFP reporter fluorescence>
0.0544

$$$$
>  <mutant code>
H142A

>  <sfGFP reporter fluorescence>
0.728

$$$$
>  <mutant code>
D64K L107C G128I

>  <sfGFP reporter fluorescence>
4.48

$$$$
>  <mutant code>
N83L

>  <sfGFP reporter fluorescence>
0.0575

$$$$
>  <mutant code>
R111F

>  <sfGFP reporter fluorescence>
0.328

$$$$
>  <mutant code>
E94R

>  <sfGFP reporter fluorescence>
0.722

$$$$
>  <mutant code>
L126D

>  <sfGFP reporter fluorescence>
0.0544

$$$$
>  <mutant code>
R39P

>  <sfGFP reporter fluorescence>
0.0581

$$$$
>  <mutant code>
C123A

>  <sfGFP reporter fluorescence>
0.0533

$$$$
>  <mutant code>
L129F

>  <sfGFP reporter fluorescence>
0.0564

$$$$
>  <mutant code>
M60L P61N D64K L107C

>  <sfGFP reporter fluorescence>
4.24

$$$$
>  <mutant code>
V82S

>  <sfGFP reporter fluorescence>
0.0555

$$$$
>  <mutant code>
S70A

>  <sfGFP reporter fluorescence>
0.281

$$$$
>  <mutant code>
G128P

>  <sfGFP reporter fluorescence>
0.0535

$$$$
>  <mutant code>
G128Q

>  <sfGFP reporter fluorescence>
2.05

$$$$
>  <mutant code>
G26A

>  <sfGFP reporter fluorescence>
0.512

$$$$
>  <mutant code>
E44A

>  <sfGFP reporter fluorescence>
0.495

$$$$
>  <mutant code>
L107S

>  <sfGFP reporter fluorescence>
2.27

$$$$
>  <mutant code>
T136A

>  <sfGFP reporter fluorescence>
0.668

$$$$
>  <mutant code>
G36N

>  <sfGFP reporter fluorescence>
1.41

$$$$
>  <mutant code>
M60L L107C G128M

>  <sfGFP reporter fluorescence>
5.22

$$$$
>  <mutant code>
G6M

>  <sfGFP reporter fluorescence>
0.0654

$$$$
>  <mutant code>
I90V

>  <sfGFP reporter fluorescence>
0.583

$$$$
>  <mutant code>
F21Y

>  <sfGFP reporter fluorescence>
0.819

$$$$
>  <mutant code>
Y41V

>  <sfGFP reporter fluorescence>
0.0687

$$$$
>  <mutant code>
R33M

>  <sfGFP reporter fluorescence>
0.0619

$$$$
>  <mutant code>
I125C

>  <sfGFP reporter fluorescence>
0.0568

$$$$
>  <mutant code>
F21P

>  <sfGFP reporter fluorescence>
0.0629

$$$$
>  <mutant code>
S130A

>  <sfGFP reporter fluorescence>
0.862

$$$$

Hello, the source for this data is the supplement of paper PMC12783771, in case you need it.
